- Tested on: HeLa Kyoto
- Experiment notes: thermal stability score vs G1/S (z-score of summed log2 fold changes over temperatures); higher = more thermally stable than in G1/S
- Applied conditions: cell cycle stage: early G1 (4.5 h after nocodazole release)
Some sequences, each annotated with its measured thermal stability score.
Give the figure only, with no unit attached.

{"Construct sequence": "MQDTGSVVPLHWFGFGYAALVASGGIIGYVKAGSVPSLAAGLLFGSLAGLGAYQLSQDPRNVWVFLATSGTLAGIMGMRFYHSGKFMPAGLIAGASLLMVAKVGVSMFNRPH [TMEM14C]", "System tested": "HeLa Kyoto", "thermal stability score": "-3.8e-18"}

Task item: Data request, read-out thermal stability score, for MEALILEPSLYTVKAILILDNDGDRLFAKYYDDTYPSVKEQKAFEKNIFNKTHRTDSEIALLEGLTVVYKSSIDLYFYVIGSSYENELMLMAVLNCLFDSLSQMLRKNVEKRALLENMEGLFLAVDEIVDGGVILESDPQQVVHRVALRGEDVPLTEQTVSQVLQSAKEQIKWSLLR [COPZ1]
Reply: -1.54

Task item: Cool, now MVEKEEAGGGISEEEAAQYDRQIRLWGLEAQKRLRASRVLLVGLKGLGAEIAKNLILAGVKGLTMLDHEQVTPEDPGAQFLIRTGSVGRNRAEASLERAQNLNPMVDVKVDTEDIEKKPESFFTQFDAVCLTCCSRDVIVKVDQICHKNSIKFFTGDVFGYHGYTFANLGEHEFVEEKTKVAKVSQGVEDGPDTKRAKLDSSETTMVKKKVVFCPVKEALEVDWSSEKAKAALKRTTSDYFLLQVLLKFRTDKGRDPSSDTYEEDSELLLQIRNDVLDSLGISPDLLPEDFVRYCFSEMAPVCAVVGGILAQEIVKALSQRDPPHNNFFFFDGMKGNGIVECLGPK [SAE1]
Reply: 0.0359

Task item: Next up: MDNSGKEAEAMALLAEAERKVKNSQSFFSGLFGGSSKIEEACEIYARAANMFKMAKNWSAAGNAFCQAAQLHLQLQSKHDAATCFVDAGNAFKKADPQEAINCLMRAIEIYTDMGRFTIAAKHHISIAEIYETELVDIEKAIAHYEQSADYYKGEESNSSANKCLLKVAGYAALLEQYQKAIDIYEQVGTNAMDSPLLKYSAKDYFFKAALCHFCIDMLNAKLAVQKYEELFPAFSDSRECKLMKKLLEAHEEQNVDSYTESVKEYDSISRLDQWLTTMLLRIKKTIQGDEEDLR [NAPA]
Reply: -0.447

---

Catalogue of melting temperature readings, one per entry.
- Tested on: HeLa Kyoto
- Experiment notes: melting temperature (median over replicates), in situ; higher = more thermally stable
- Applied conditions: cell cycle stage: G1/S
Provide a numeric answer, followed by its unit.

Observe how each entry below is paired with its result.
{"Construct sequence": "MAAAPQAPGRGSLRKTRPLVVKTSLNNPYIIRWSALESEDMHFILQTLEDRLKAIGLQKIEDKKKKNKTPFLKKESREKCSIAVDISENLKEKKTDAKQQVSGWTPAHVRKQLAIGVNEVTRALERRELLLVLVCKSVKPAMITSHLIQLSLSRSVPACQVPRLSERIAPVIGLKCVLALAFKKNTTDFVDEVRAIIPRVPSLSVPWLQDRIEDSGENLETEPLESQDRELLDTSFEDLSKPKRKLADGRQASVTLQPLKIKKLIPNPNKIRKPPKSKKATPK [RPP38]", "melting temperature": "53.1 °C"}
{"Construct sequence": "MSGSVLFTAGERWRCFLTPSRSSLYWALHNFCCRKKSTTPKKITPNVTFCDENAKEPENALDKLFSSEQQASILHVLNTASTKELEAFRLLRGRRSINIVEHRENFGPFQNLESLMNVPLFKYKSTVQVCNSILCPKTGREKRKSPENRFLRKLLKPDIERERLKAVNSIISIVFGTRRIAWAHLDRKLTVLDWQQSDRWSLMRGIYSSSVYLEEISSIISKMPKADFYVLEKTGLSIQNSSLFPILLHFHIMEAMLYALLNKTFAQDGQHQVLSMNRNAVGKHFELMIGDSRTSGKELVKQFLFDSILKADPRVFFPSDKIVHYRQMFLSTELQRVEELYDSLLQAIAFYELAVFDSQP [TEFM]", "melting temperature": "50.9 °C"}
{"Construct sequence": "MRPVRLMKVFVTRRIPAEGRVALARAADCEVEQWDSDEPIPAKELERGVAGAHGLLCLLSDHVDKRILDAAGANLKVISTMSVGIDHLALDEIKKRGIRVGYTPDVLTDTTAELAVSLLLTTCRRLPEAIEEVKNGGWTSWKPLWLCGYGLTQSTVGIIGLGRIGQAIARRLKPFGVQRFLYTGRQPRPEEAAEFQAEFVSTPELAAQSDFIVVACSLTPATEGLCNKDFFQKMKETAVFINISRGDVVNQDDLYQALASGKIAAAGLDVTSPEPLPTNHPLLTLKNCVILPHIGSATHRTRNTMSLLAANNLLAGLRGEPMPSELKL [GRHPR]", "melting temperature": "54.3 °C"}
{"Construct sequence": "MIALFNKLLDWFKALFWKEEMELTLVGLQYSGKTTFVNVIASGQFNEDMIPTVGFNMRKITKGNVTIKLWDIGGQPRFRSMWERYCRGVSAIVYMVDAADQEKIEASKNELHNLLDKPQLQGIPVLVLGNKRDLPGALDEKELIEKMNLSAIQDREICCYSISCKEKDNIDITLQWLIQHSKSRRS [ARL8A]", "melting temperature": "54.3 °C"}

// next entry
Task item: # get_value(readout= melting temperature, system= HeLa Kyoto) for MSGFSTEERAAPFSLEYRVFLKNEKGQYISPFHDIPIYADKDVFHMVVEVPRWSNAKMEIATKDPLNPIKQDVKKGKLRYVANLFPYKGYIWNYGAIPQTWEDPGHNDKHTGCCGDNDPIDVCEIGSKVCARGEIIGVKVLGILAMIDEGETDWKVIAINVDDPDAANYNDINDVKRLKPGYLEATVDWFRRYKVPDGKPENEFAFNAEFKDKDFAIDIIKSTHDHWKALVTKKTNGKGISCMNTTLSESPFKCDPDAARAIVDALPPPCESACTVPTDVDKWFHHQKN [PPA1]
Reply: 54.1 °C
